system: recombinant human IL-23 protein (rhIL-23); assay: Binding of mouse antiserum to rhIL-23, ELISA; details: rhIL-23 ELISA; antiserum of BALB/c mice 6 weeks after initial administration, 0.5 mg/body with Alhydrogel
Where no end group is shown, it is not given here.
parameter measured: binding to IL-23 (binding ratio to normal serum)
// return a plain number; no unit text

- substance: "30 (KKSQPWQR; not fully specified (N-terminus)) [compound 30]"
  target under test: "recombinant human IL-23 protein (rhIL-23)"
  measured: 1.2

Test item 35 (SQPWQRK; not fully specified (N-terminus); listed as Homo sapiens) [compound 35] ; recombinant human IL-23 protein (rhIL-23); reported binding to IL-23 (binding ratio to normal serum) was 1.30

Test item 18 (STSQPWQR; not fully specified (N-terminus)) [compound 18] ; recombinant human IL-23 protein (rhIL-23); reported binding to IL-23 (binding ratio to normal serum) was 1.21

Test item 21 (SSSQSWQR; not fully specified (N-terminus)) [compound 21] ; recombinant human IL-23 protein (rhIL-23); reported binding to IL-23 (binding ratio to normal serum) was 1.07

Test item 13 (SPSQPWAR; not fully specified (N-terminus)) [compound 13] ; recombinant human IL-23 protein (rhIL-23); reported binding to IL-23 (binding ratio to normal serum) was 1.11

Test item 14 (SPSQPWQA; not fully specified (N-terminus)) [compound 14] ; recombinant human IL-23 protein (rhIL-23); reported binding to IL-23 (binding ratio to normal serum) was 1.23

====

tested on: recombinant human IL-23 protein (rhIL-23); assay: Binding of mouse antiserum to rhIL-23, ELISA; details: rhIL-23 ELISA; antiserum of BALB/c mice 6 weeks after initial administration, 0.5 mg/body with Alhydrogel
Where no end group is shown, it is not given here.
parameter measured: binding to IL-23 (binding ratio to normal serum)
// return a plain number; no unit text

# count of solved cases: 3
- substance: "7 (APSQPWQR; not fully specified (N-terminus)) [compound 7]"
  measured: 1.40
- substance: "37 (QPWQRGGGGSQPWQR; not fully specified (N-terminus)) [compound 37]"
  measured: 1.05
- substance: "27 (KPSQPWQR; not fully specified (N-terminus)) [compound 27]"
  measured: 1.07

Read the next record carefully.
The reported value for 10 (SPSAPWQR; not fully specified (N-terminus)) [compound 10] in terms of binding to IL-23 (binding ratio to normal serum) is 1.03
